Data provenance: patent US4087613A

- assay.system: activated human C1 (Homo sapiens, UniProt P09871)
- Construct: fluid-phase human C2 substrate in presence of C4
- Sequence (P09871 16-688): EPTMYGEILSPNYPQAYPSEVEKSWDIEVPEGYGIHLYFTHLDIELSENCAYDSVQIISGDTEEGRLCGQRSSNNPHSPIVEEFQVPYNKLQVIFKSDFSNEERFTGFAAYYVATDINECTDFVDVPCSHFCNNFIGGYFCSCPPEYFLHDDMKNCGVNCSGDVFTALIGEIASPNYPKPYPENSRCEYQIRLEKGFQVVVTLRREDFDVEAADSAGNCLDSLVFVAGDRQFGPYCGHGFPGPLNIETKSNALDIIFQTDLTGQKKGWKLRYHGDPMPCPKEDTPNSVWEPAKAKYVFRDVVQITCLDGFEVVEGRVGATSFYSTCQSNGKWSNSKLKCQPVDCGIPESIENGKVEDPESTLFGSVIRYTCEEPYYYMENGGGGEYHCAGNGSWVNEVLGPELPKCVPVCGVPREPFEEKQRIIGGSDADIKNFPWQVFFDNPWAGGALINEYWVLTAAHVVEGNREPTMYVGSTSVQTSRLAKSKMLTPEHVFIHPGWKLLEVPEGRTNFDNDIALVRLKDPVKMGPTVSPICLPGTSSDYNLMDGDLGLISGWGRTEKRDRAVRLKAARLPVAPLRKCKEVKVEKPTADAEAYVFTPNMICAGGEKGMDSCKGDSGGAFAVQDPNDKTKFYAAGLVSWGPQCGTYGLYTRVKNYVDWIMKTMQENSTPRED
- Sequence (P00736 18-705 partner): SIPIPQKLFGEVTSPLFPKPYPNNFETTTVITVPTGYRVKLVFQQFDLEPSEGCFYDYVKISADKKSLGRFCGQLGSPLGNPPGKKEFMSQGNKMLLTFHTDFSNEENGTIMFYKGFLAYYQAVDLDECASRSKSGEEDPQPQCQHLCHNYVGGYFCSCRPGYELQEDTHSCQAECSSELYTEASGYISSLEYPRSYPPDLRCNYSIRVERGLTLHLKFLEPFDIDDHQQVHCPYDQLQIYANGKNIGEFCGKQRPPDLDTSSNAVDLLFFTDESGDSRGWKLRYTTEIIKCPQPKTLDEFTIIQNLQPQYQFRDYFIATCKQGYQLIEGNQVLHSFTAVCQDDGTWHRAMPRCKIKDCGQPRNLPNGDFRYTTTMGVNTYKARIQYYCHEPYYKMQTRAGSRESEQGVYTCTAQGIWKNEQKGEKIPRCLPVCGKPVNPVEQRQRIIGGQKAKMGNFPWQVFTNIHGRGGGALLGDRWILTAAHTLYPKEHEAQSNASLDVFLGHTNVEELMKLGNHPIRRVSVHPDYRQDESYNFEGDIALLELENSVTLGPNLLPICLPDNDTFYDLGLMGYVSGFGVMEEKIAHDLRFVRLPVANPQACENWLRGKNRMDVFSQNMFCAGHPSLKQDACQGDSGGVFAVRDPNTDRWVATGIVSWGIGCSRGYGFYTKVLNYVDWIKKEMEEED
- Sequence (P02745 23-245 partner): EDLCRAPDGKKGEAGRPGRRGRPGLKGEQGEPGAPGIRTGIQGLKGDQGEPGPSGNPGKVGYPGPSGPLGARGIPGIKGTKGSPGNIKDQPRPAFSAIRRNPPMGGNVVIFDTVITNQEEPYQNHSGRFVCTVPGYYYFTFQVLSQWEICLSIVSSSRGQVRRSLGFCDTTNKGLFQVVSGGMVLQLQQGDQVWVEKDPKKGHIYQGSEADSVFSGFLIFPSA
- Sequence (P02746 28-253 partner): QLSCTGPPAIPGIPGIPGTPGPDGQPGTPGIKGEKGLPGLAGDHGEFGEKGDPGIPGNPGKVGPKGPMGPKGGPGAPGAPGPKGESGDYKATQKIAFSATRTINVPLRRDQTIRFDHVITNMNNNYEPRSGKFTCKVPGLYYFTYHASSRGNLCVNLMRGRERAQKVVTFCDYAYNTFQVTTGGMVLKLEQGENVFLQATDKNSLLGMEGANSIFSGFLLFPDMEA
- Sequence (P02747 29-245 partner): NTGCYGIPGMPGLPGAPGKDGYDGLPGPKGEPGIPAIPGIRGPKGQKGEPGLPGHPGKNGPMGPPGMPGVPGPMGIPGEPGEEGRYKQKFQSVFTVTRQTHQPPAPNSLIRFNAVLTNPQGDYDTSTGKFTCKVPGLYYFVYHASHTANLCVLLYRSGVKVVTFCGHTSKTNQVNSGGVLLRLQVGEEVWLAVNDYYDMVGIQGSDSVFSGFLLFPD
- run.description: Test, Code 026 (C1 inhibitor): protection of human C2 from activated human C1 and C4
- Format: biochemical
- condition.details: serial two-fold dilution assay; higher well number indicates higher activity
Quick reference for C1 026 Wells among some molecules

O=C(O)c1cc(NS(=O)(=O)c2ccc3c(S(=O)(=O)Nc4cc(C(=O)O)c(O)c(C(=O)O)c4)cc(S(=O)(=O)Nc4cc(C(=O)O)c(O)c(C(=O)O)c4)cc3c2)cc(C(=O)O)c1O = +5 wells
O=C(O)c1cc(NS(=O)(=O)c2ccc3c(S(=O)(=O)Nc4cc(C(=O)O)cc(C(=O)O)c4)cc(S(=O)(=O)Nc4cc(C(=O)O)cc(C(=O)O)c4)cc3c2)cc(C(=O)O)c1 = +6 wells
O=C([O-])c1cc(NS(=O)(=O)c2ccc3c(S(=O)(=O)Nc4cc(C(=O)[O-])c(C(=O)[O-])c(C(=O)[O-])c4)cc(S(=O)(=O)Nc4cc(C(=O)[O-])c(C(=O)[O-])c(C(=O)[O-])c4)cc3c2)cc(C(=O)[O-])c1C(=O)[O-].[Na+].[Na+].[Na+].[Na+].[Na+].[Na+].[Na+].[Na+].[Na+] = +8 wells
O=C([O-])c1cccc(NS(=O)(=O)c2ccc3c(S(=O)(=O)Nc4cccc(C(=O)[O-])c4)cc(S(=O)(=O)Nc4cccc(C(=O)[O-])c4)cc3c2)c1.[Na+].[Na+].[Na+] = +3 wells
O=C(O)c1cc(NS(=O)(=O)c2ccc3c(S(=O)(=O)Nc4ccc(O)c(C(=O)O)c4)cc(S(=O)(=O)Nc4ccc(O)c(C(=O)O)c4)cc3c2)ccc1O = +1 wells

Please find the next molecule below.
# input molecule: CN(c1cc(C(=O)O)cc(C(=O)O)c1)S(=O)(=O)c1ccc2c(S(=O)(=O)N(C)c3cc(C(=O)O)cc(C(=O)O)c3)cc(S(=O)(=O)N(C)c3cc(C(=O)O)cc(C(=O)O)c3)cc2c1 ; wanted: its C1 026 Wells
+3 wells

* * *

- Test system: whole complement
- run.description: Complement Level Reduction Test: whole complement in serum of dosed guinea pigs, capillary tube assay
- Assay type: in vivo
- condition.details: 200 mg/kg
Quick reference for In Vivo Activity (Guinea Pig) % Inhibition, Intraperitoneal, 30 minutes among some molecules

O=C(O)c1cc(NS(=O)(=O)c2ccc3c(S(=O)(=O)Nc4cc(C(=O)O)cc(C(=O)O)c4)cc(S(=O)(=O)Nc4cc(C(=O)O)cc(C(=O)O)c4)cc3c2)cc(C(=O)O)c1 = -84%
O=C(O)c1cc(NS(=O)(=O)c2ccc3c(S(=O)(=O)Nc4cc(C(=O)O)c(O)c(C(=O)O)c4)cc(S(=O)(=O)Nc4cc(C(=O)O)c(O)c(C(=O)O)c4)cc3c2)cc(C(=O)O)c1O = -69%
O=C([O-])c1cc(NS(=O)(=O)c2ccc3c(S(=O)(=O)Nc4cc(C(=O)[O-])cc(C(=O)[O-])c4)cc(S(=O)(=O)Nc4cc(C(=O)[O-])cc(C(=O)[O-])c4)cc3c2)cc(C(=O)[O-])c1.[Na+].[Na+].[Na+].[Na+].[Na+].[Na+] = -67%

Please find the next molecule below.
# input molecule: O=C([O-])c1cc(NS(=O)(=O)c2ccc3c(S(=O)(=O)Nc4cc(C(=O)[O-])c(C(=O)[O-])c(C(=O)[O-])c4)cc(S(=O)(=O)Nc4cc(C(=O)[O-])c(C(=O)[O-])c(C(=O)[O-])c4)cc3c2)cc(C(=O)[O-])c1C(=O)[O-].[Na+].[Na+].[Na+].[Na+].[Na+].[Na+].[Na+].[Na+].[Na+] ; wanted: its In Vivo Activity (Guinea Pig) % Inhibition, Intraperitoneal, 30 minutes
-63%
